Kindly supply the reported Pre-emergence efficacy against ECHCG values for the records listed here.
System: Echinochloa crus-galli (ECHCG)
assay-text: A. Herbicidal pre-emergence efficacy, ECHCG
Type: in vivo
settings: 320 g/ha; scored visually after about 3 weeks vs untreated controls
Text: Seeds of mono- and dicotyledonous weed plants were placed in plastic pots in sandy loam soil (doubly sown with one species each of mono- or dicotyledonous weed plants per pot) and covered with soil. […] After about 3 weeks, the efficacy of the preparations was scored visually in comparison with untreated controls as percentages. […]
Answers are plain numbers, in %.

> print(dat)
                                chem.smiles  value.units  result.number
1  O=S(=O)(CCCC(F)(F)F)Oc1c(Cl)cccc1Oc1ncc(Cl)cn1            %             90

Field: Pre-emergence efficacy against ECHCG. Fill in for each record below.
1. O=S(=O)(CCCC(F)(F)F)Oc1c(F)cccc1Oc1ncc(Cl)cn1
2. O=S(=O)(CCCCCl)Oc1ccccc1Oc1ncc(Cl)cn1
3. CC(C)S(=O)(=O)Oc1ccccc1Oc1ncc(Cl)cn1
4. CC(C)CCS(=O)(=O)Oc1ccccc1Oc1ncc(Cl)cn1
5. CCCCS(=O)(=O)Oc1ccccc1Oc1ncc(Cl)cn1
6. O=S(=O)(CCC(F)(F)F)Oc1c(F)cccc1Oc1ncc(Br)cn1

## Result
1. 90
2. 100
3. 90
4. 100
5. 100
6. 100

Field: Pre-emergence efficacy against ECHCG. Fill in for each record below.
1. O=S(=O)(CCCC(F)(F)F)Oc1c(Br)cccc1Oc1ncc(Cl)cn1
2. CCCCCS(=O)(=O)Oc1ccccc1Oc1ncc(Cl)cn1

## Result
1: 100; 2: 100

----------
System: Oryza sativa (ORYSA)
assay-text: F. Post-emergence effect on useful plants, ORYSA
Assay type: in vivo
settings: useful plant, application rate 80 g/ha
reported-metric: Post-emergence efficacy against ORYSA in % (%)
One number for each entry, in %.

> print(dat)
                                chem.smiles         tested.system  result.number
1        O=S(=O)(CCl)Oc1ccccc1Oc1ncc(Cl)cn1  Oryza sativa (ORYSA)             10
2  O=S(=O)(CCC(F)(F)F)Oc1ccccc1Oc1ncc(Cl)cn1  Oryza sativa (ORYSA)             20
3   O=S(=O)(CCCCl)Oc1cccc(F)c1Oc1ncc(Cl)cn1  Oryza sativa (ORYSA)             10

Field: Post-emergence efficacy against ORYSA in %. Fill in for each record below.
1. O=S(=O)(CCCCCl)Oc1ccccc1Oc1ncc(Cl)cn1
2. CCCCCS(=O)(=O)Oc1ccccc1Oc1ncc(Cl)cn1

## Result
1: 0; 2: 0

----------
Test system: Setaria viridis (SETVI)
assay-text: C. Herbicidal pre-emergence efficacy, SETVI
Type: in vivo
settings: 320 g/ha, scored after about 3 weeks
reported-metric: Pre-emergence efficacy against SETVI
Provide a numeric answer, followed by its unit.

> print(dat)
                                chem.smiles  result
1  Cc1cccc(Oc2ncc(F)cn2)c1OS(=O)(=O)CCCC(F)(F)F    100%
2      CCCCCS(=O)(=O)Oc1ccccc1Oc1ncc(Cl)cn1     80%
3      O=S(=O)(CCCCl)Oc1ccccc1Oc1ncc(Cl)cn1    100%
4  Cc1cccc(Oc2ncc(Cl)cn2)c1OS(=O)(=O)CCC(F)=C(F)F    100%
5  O=S(=O)(CC=C(Cl)Cl)Oc1c(F)cccc1Oc1ncc(Cl)cn1     90%

Field: Pre-emergence efficacy against SETVI. Fill in for each record below.
1. O=S(=O)(CCCCCl)Oc1ccccc1Oc1ncc(Cl)cn1
2. O=S(=O)(CCCC(F)(F)F)Oc1c(F)cccc1Oc1ncc(Cl)cn1
3. O=S(=O)(CCC(F)(F)F)Oc1c(F)cccc1Oc1ncc(Cl)cn1
4. O=S(=O)(CCCCl)Oc1ccccc1Oc1ncc(F)cn1

## Result
1. 100%
2. 100%
3. 100%
4. 100%

----------
Test system: Alopecurus myosuroides (ALOMY)
assay-text: E. Herbicidal post-emergence efficacy, ALOMY
Assay type: in vivo
settings: application rate 320 g/ha
Experimental: Seeds of monocotyledonous and dicotyledonous weeds and crop plants were placed in sandy loam in plastic or organic planting pots, covered with soil and cultivated in a greenhouse under controlled growth conditions. 2 to 3 weeks after sowing, the test plants were treated at the one-leaf stage. […]
Kindly supply the reported Post-emergence efficacy against ALOMY in % values for the records listed here.
Answers are plain numbers, in %.

Observe how each entry below is paired with its result.
> print(dat)
                                chem.smiles  result.number
1        CCCS(=O)(=O)Oc1ccccc1Oc1ncc(Cl)cn1             80
2   Cc1cccc(Oc2ncc(Cl)cn2)c1OS(=O)(=O)CCCCl             90
3  O=S(=O)(CCCC(F)(F)F)Oc1c(F)cccc1Oc1ncc(F)cn1            100

Field: Post-emergence efficacy against ALOMY in %. Fill in for each record below.
1. N#Cc1cccc(Oc2ncc(Cl)cn2)c1OS(=O)(=O)CCCC(F)(F)F
2. O=S(=O)(CCCCl)Oc1ccccc1Oc1ncc(Cl)cn1
3. O=S(=O)(CCC(F)(F)F)Oc1c(F)cccc1Oc1ncc(Cl)cn1

## Result
1. 90
2. 90
3. 100

----------
System: Pharbitis purpurea (PHBPU)
assay-text: E. Herbicidal post-emergence efficacy, PHBPU
Format: in vivo
settings: application rate 80 g/ha
reported-metric: Post-emergence efficacy against PHBPU in %
Provide a numeric answer, followed by its unit.

> print(dat)
                                chem.smiles  result
1  N#Cc1cccc(Oc2ncc(Cl)cn2)c1OS(=O)(=O)CCCC(F)(F)F     90%

Field: Post-emergence efficacy against PHBPU in %. Fill in for each record below.
1. O=S(=O)(CCC(F)(F)F)Oc1c(Cl)cccc1Oc1ncc(Br)cn1
2. Cc1cccc(Oc2ncc(F)cn2)c1OS(=O)(=O)CCCC(F)(F)F

## Result
80%
80%

----------
System: Polygonum convolvulus (POLCO)
assay-text: C. Herbicidal pre-emergence efficacy, POLCO
Assay type: in vivo
settings: 320 g/ha, scored after about 3 weeks
Kindly supply the reported Pre-emergence efficacy against POLCO values for the records listed here.
Numbers only, in %.

Observe how each entry below is paired with its result.
> print(dat)
                                chem.smiles  result.number
1  Cc1cccc(Oc2ncc(F)cn2)c1OS(=O)(=O)CCCC(F)(F)F            100
2  N#Cc1cccc(Oc2ncc(Cl)cn2)c1OS(=O)(=O)CCCC(F)(F)F             90

Field: Pre-emergence efficacy against POLCO. Fill in for each record below.
1. O=S(=O)(CCC(F)(F)F)Oc1c(Br)cccc1Oc1ncc(F)cn1
2. CC(C)CCS(=O)(=O)Oc1ccccc1Oc1ncc(Cl)cn1
3. Cc1cccc(Oc2ncc(Cl)cn2)c1OS(=O)(=O)CC1CC(F)(F)C1
4. O=S(=O)(CCC(F)(F)F)Oc1c(Cl)cccc1Oc1ncc(Cl)cn1

## Result
1: 90; 2: 90; 3: 90; 4: 100

----------
Kindly supply the reported Post-emergence efficacy against STEME values for the records listed here.
Test system: Stellaria media (STEME)
assay-text: B. Herbicidal post-emergence efficacy, STEME
Format: in vivo
settings: 80 g/ha

Field: Post-emergence efficacy against STEME. Fill in for each record below.
1. O=S(=O)(CCCC(F)(F)F)Oc1c(Br)cccc1Oc1ncc(Cl)cn1
2. O=S(=O)(CCC(F)(F)F)Oc1c(Br)cccc1Oc1ncc(Cl)cn1
3. CCC(C)S(=O)(=O)Oc1ccccc1Oc1ncc(Cl)cn1 (centres unmarked)
4. O=S(=O)(CCC(F)=C(F)F)Oc1c(Cl)cccc1Oc1ncc(Cl)cn1
5. O=S(=O)(CCC(F)(F)F)Oc1c(F)cccc1Oc1ncc(F)cn1

## Result
1. 100%
2. 100%
3. 90%
4. 90%
5. 100%

----------
Test system: Triticum aestivum (TRZAS)
assay-text: D. Pre-emergence effect on useful plants, TRZAS
Assay type: in vivo
settings: useful plant, application rate 320 g/ha
reported-metric: Pre-emergence efficacy against TRZAS in % (%)
One number for each entry, in %.

> print(dat)
                                   compound  result.number
1  O=S(=O)(CC=C(Cl)Cl)Oc1c(F)cccc1Oc1ncc(Cl)cn1             10
2  N#Cc1cccc(Oc2ncc(Cl)cn2)c1OS(=O)(=O)CC1CC1(Cl)Cl (centres unmarked)              0
3  O=S(=O)(CCC(F)(F)F)Oc1c(Cl)cccc1Oc1ncc(Br)cn1             10
4      CCCCCS(=O)(=O)Oc1ccccc1Oc1ncc(Cl)cn1              0
5  O=S(=O)(CCCC(F)(F)F)Oc1c(Cl)cccc1Oc1ncc(Br)cn1              0
6  O=S(=O)(CCCC(F)(F)C(F)(F)F)Oc1c(F)cccc1Oc1ncc(Cl)cn1             10

Field: Pre-emergence efficacy against TRZAS in %. Fill in for each record below.
1. C=CCS(=O)(=O)Oc1ccccc1Oc1ncc(Cl)cn1
2. CC(C)CCS(=O)(=O)Oc1ccccc1Oc1ncc(Cl)cn1
3. N#Cc1cccc(Oc2ncc(Cl)cn2)c1OS(=O)(=O)CCC(F)(F)F
4. O=S(=O)(CCCCl)Oc1cccc(F)c1Oc1ncc(Cl)cn1
5. O=S(=O)(CCC(F)=C(F)F)Oc1c(Cl)cccc1Oc1ncc(Cl)cn1

## Result
0
0
0
10
20
